Origin of values: patent US20140206628A1

# assayTarget: A/Beijing/262/95 (H1N1)
# conditionSummary: remark: other sources report otherwise
parameterMeasured: pKd
One number for each entry, as −log10 of the molar value.

What does the record list as pKd for HB80.3 ([change], [change], [change], [change], Delta54-95) (designed binder) MASTRGSGRPWGFSENLAFELALSFTNKDTPDRWAKVAQYVSGRTPEEVKKHYE ?
8.00
